// values below are reported pEC50 for positive allosteric modulation
# system-tested: mAChR M1 (Homo sapiens, UniProt P11229)
# Sequence (P11229 whole entry, looked up): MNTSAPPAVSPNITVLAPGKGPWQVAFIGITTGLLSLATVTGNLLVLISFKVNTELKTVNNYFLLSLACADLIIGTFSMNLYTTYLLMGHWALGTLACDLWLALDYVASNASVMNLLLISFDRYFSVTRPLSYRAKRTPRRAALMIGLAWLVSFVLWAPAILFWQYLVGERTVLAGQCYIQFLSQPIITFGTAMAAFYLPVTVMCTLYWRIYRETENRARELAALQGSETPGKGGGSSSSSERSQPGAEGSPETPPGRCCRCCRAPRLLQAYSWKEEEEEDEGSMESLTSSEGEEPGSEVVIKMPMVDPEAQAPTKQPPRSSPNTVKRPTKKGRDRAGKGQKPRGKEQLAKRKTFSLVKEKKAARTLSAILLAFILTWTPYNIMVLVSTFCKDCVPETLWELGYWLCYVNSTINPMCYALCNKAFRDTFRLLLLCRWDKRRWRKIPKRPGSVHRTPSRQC
# run-description: In vitro cellular calcium flux assay, positive allosteric modulation of mAChR M1
# Assay type: cell-based
# condition-parameters: BHK cells expressing mAChR M1; EC20 carbachol; Examples 76-80 and 82-89 slightly modified procedure

{"columns": ["compound", "pEC50 for positive allosteric modulation"],
 "data": [
  ["Cc1cccc(-c2ccc(Cn3cc(C(=O)N[C@H]4CCCC[C@@H]4O)c4ncccc43)c(F)c2)n1 [Example 44]", 6.9],
  ["COc1ccc(Cn2cc(C(=O)N[C@H]3CCCC[C@@H]3O)c3nccc(C)c32)cc1C [Example 66]", 7.9],
  ["COc1cccc(Cn2cc(C(=O)N[C@H]3CCCC[C@@H]3O)c3ncccc32)c1F [Example 102]", 6.4],
  ["COc1ccc(Cn2cc(C(=O)N[C@H]3CCCC[C@@H]3O)c3nccc(Cl)c32)cc1 [Example 58]", 7.7],
  ["Cc1ccc(Cn2cc(C(=O)N[C@H]3CCCC[C@@H]3O)c3nccc(Cl)c32)nc1 [Example 61]", 7.0],
  ["Cc1cccc(Cn2cc(C(=O)N[C@H]3CCCC[C@@H]3O)c3nccc(Cl)c32)n1 [Example 16]", 6.5],
  ["O=C(NC1CCC(F)(F)C[C@@H]1O)c1cn(Cc2ccc(F)cc2)c2cccnc12 (single isomer, unassigned) [Example 34]", 6.9],
  ["O=C(N[C@H]1CCCC[C@@H]1O)c1cn(Cc2ccc(F)cn2)c2c(Cl)ccnc12 [Example 17]", 6.9],
  ["COc1ccnc2c(C(=O)N[C@H]3CCCC[C@@H]3O)cn(Cc3ccc(F)cc3)c12 [Example 37]", 6.7],
  ["O=C(NC1CCCCC1)c1cn(Cc2ccc(-n3cccn3)cc2)c2cccnc12 [Example 50]", 6.4],
  ["Cc1ccc2c(n1)c(C(=O)N[C@H]1CCCC[C@@H]1O)cn2Cc1ccc(-n2cccn2)cc1 [Example 40]", 6.5],
  ["Cc1ccnc2c(C(=O)N[C@H]3CCCC[C@@H]3O)cn(Cc3cc(F)cc(F)c3)c12 [Example 101]", 7.0],
  ["Cc1ccc(Cn2cc(C(=O)N[C@H]3CCCC[C@@H]3O)c3ncccc32)cn1 [Example 25]", 6.2],
  ["O=C(NC1CCC(F)(F)CC1)c1cn(Cc2ccc(-n3cccn3)cc2)c2cccnc12 [Example 51]", 6.3],
  ["COc1cc(Cn2cc(C(=O)N[C@H]3CCCC[C@@H]3O)c3ncccc32)ccc1F [Example 91]", 6.3],
  ["O=C(N[C@H]1CCCC[C@@H]1O)c1cn(Cc2ccc(F)cc2)c2c(Cl)ccnc12 [Example 14]", 7.3],
  ["O=C(N[C@H]1CCCC[C@@H]1O)c1cn(Cc2ccc(F)cc2)c2ccc(Cl)nc12 [Example 39]", 6.0],
  ["Cc1cc(Cn2cc(C(=O)N[C@H]3CCCC[C@@H]3O)c3ncccc32)ccc1F [Example 6]", 6.7],
  ["O=C(N[C@H]1CCCC[C@@H]1O)c1cn(Cc2ccc(F)cc2)c2cccnc12 [Example 5]", 6.9],
  ["Cc1ccnc2c(C(=O)N[C@H]3CCCC[C@@H]3O)cn(Cc3cccc(F)c3)c12 [Example 65]", 7.7],
  ["COc1ccc(Cn2cc(C(=O)N[C@H]3CCCC[C@@H]3O)c3ncccc32)c(F)c1 [Example 92]", 6.4],
  ["N#Cc1ccnc2c(C(=O)N[C@H]3CCCC[C@@H]3O)cn(Cc3ccc(F)cc3)c12 [Example 32]", 6.7],
  ["Cc1ccnc2c(C(=O)N[C@H]3CCCC[C@@H]3O)cn(Cc3ccc(Cl)cc3)c12 [Example 60]", 7.8],
  ["O=C(N[C@H]1CCCC[C@@H]1O)c1cn(Cc2ccc(Br)cc2)c2cccnc12 [Example 56]", 6.5],
  ["Cc1nc(Cn2cc(C(=O)N[C@H]3CCCC[C@@H]3O)c3ncccc32)cs1 [Example 7]", 5.9],
  ["Cc1ccnc2c(C(=O)N[C@H]3CCCC[C@@H]3O)cn(Cc3cnn(C)c3)c12 [Example 73]", 7.9],
  ["Cc1csc(Cn2cc(C(=O)N[C@H]3CCCC[C@@H]3O)c3nccc(Cl)c32)n1 [Example 74]", 6.7],
  ["Cc1ccc(Cn2cc(C(=O)N[C@H]3CCCC[C@@H]3O)c3ncccc32)nc1 [Example 26]", 6.1],
  ["Cc1ccnc2c(C(=O)N[C@H]3CCCC[C@@H]3O)cn(Cc3ccc(Cl)nc3)c12 [Example 59]", 7.4],
  ["Cc1ccc(Cn2cc(C(=O)N[C@H]3CCCC[C@@H]3O)c3nccc(C)c32)nc1 [Example 64]", 7.2],
  ["CN1CCC(NC(=O)c2cn(Cc3ccc(F)cc3)c3cccnc23)CC1 [Example 31]", 6.5],
  ["Cc1ccc(Cn2cc(C(=O)N[C@H]3CCCC[C@@H]3O)c3nccc(Cl)c32)cn1 [Example 62]", 7.4],
  ["COc1ccc(Cn2cc(C(=O)N[C@H]3CCCC[C@@H]3O)c3nccc(Cl)c32)cn1 [Example 68]", 7.7]
]}
